- System: A. viscosus
- ASSAY_OVERVIEW: Growth inhibition of A. viscosus over 24 hours (bacterial optical density)
- Type: cell-based
- ASSAY_SETUP: 4 h; 500 μl test sample added to 9.5 ml A. viscosus in TSB, 3 replicates
- Text: Bacterial optical density was captured every at 0, 4, 22 and 24 hrs.
Here the recorded Bacterial optical density, 4 h is given for each entry.
Give the figure by itself; no unit, no explanation.

A selection of reference data follows.
| COMPOUND | MEASUREMENT_TYPE | MEASUREMENT |
| --- | --- | --- |
| C[N+](C)(C)CCO.O=C([O-])c1ccccc1O [Choline salicylate, choline salicylate] | Bacterial optical density, 4 h | 0.1523 |
| C[N+](C)(C)CCO.[Cl-] [Choline chloride] | Bacterial optical density, 4 h | 0.2445 |
| CCOS(=O)(=O)[O-].CCn1cc[n+](C)c1 [EMIM ethylsulfate] | Bacterial optical density, 4 h | 0.2499 |
| C[N+](CCO)(CCO)CCO | Bacterial optical density, 4 h | 0.2605 |
| C=CCn1cc[n+](C)c1.[Cl-] | Bacterial optical density, 4 h | 0.2265 |

Continue with the compound presented below.
**Q:** Fill blank: measured Bacterial optical density, 4 h of the compound CC(=O)[O-].CCn1cc[n+](C)c1 [EMIM acetate] is ____.
**A:** 0.2324

Reference source for all entries: patent US20150335549A1
